B1: HDV Ribozyme (parent)
chain: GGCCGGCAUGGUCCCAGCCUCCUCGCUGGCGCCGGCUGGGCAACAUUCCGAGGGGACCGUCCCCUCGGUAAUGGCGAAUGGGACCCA

Variants of: B1
Test: self-cleavage, relative activity (ratio to wild type); higher = more cleavage; co-transcriptional

{"VARIANT IDENTIFIER": "C22U C66U", "self-cleavage": 0.604}
{"VARIANT IDENTIFIER": "G5A G68A", "self-cleavage": 0.164}
{"VARIANT IDENTIFIER": "C14U C24A", "self-cleavage": 0.76}
{"VARIANT IDENTIFIER": "G25A C61A", "self-cleavage": 0.201}
{"VARIANT IDENTIFIER": "C21U G34U", "self-cleavage": 0.0354}
{"VARIANT IDENTIFIER": "G73A C84A", "self-cleavage": 0.564}
{"VARIANT IDENTIFIER": "C13G U37A", "self-cleavage": 0.17}
{"VARIANT IDENTIFIER": "G5U C7U", "self-cleavage": 0}
{"VARIANT IDENTIFIER": "U37C A83G", "self-cleavage": 0.76}
{"VARIANT IDENTIFIER": "A78G U79A", "self-cleavage": 0.317}
{"VARIANT IDENTIFIER": "C49A C75A", "self-cleavage": 0.156}
{"VARIANT IDENTIFIER": "C13G U65A", "self-cleavage": 0.101}
{"VARIANT IDENTIFIER": "U23A C62G", "self-cleavage": 0.776}
{"VARIANT IDENTIFIER": "G17U G29A", "self-cleavage": 0.0314}
{"VARIANT IDENTIFIER": "U65A A78C", "self-cleavage": 0.259}
{"VARIANT IDENTIFIER": "G6C G55U", "self-cleavage": 0.177}
{"VARIANT IDENTIFIER": "C36U G38A", "self-cleavage": 0.191}
{"VARIANT IDENTIFIER": "G53C A87G", "self-cleavage": 0.971}
{"VARIANT IDENTIFIER": "C18U U69C", "self-cleavage": 0.878}
{"VARIANT IDENTIFIER": "G1A C15A", "self-cleavage": 0.0923}
{"VARIANT IDENTIFIER": "C48U G55U", "self-cleavage": 1.11}
{"VARIANT IDENTIFIER": "G53U A83C", "self-cleavage": 0.6}
{"VARIANT IDENTIFIER": "C32U U79A", "self-cleavage": 0.653}
{"VARIANT IDENTIFIER": "U27A G54A", "self-cleavage": 0.961}
{"VARIANT IDENTIFIER": "G28C G31U", "self-cleavage": 0.244}
{"VARIANT IDENTIFIER": "C13U G52A", "self-cleavage": 0.682}
{"VARIANT IDENTIFIER": "G17U G55U", "self-cleavage": 0.415}
{"VARIANT IDENTIFIER": "G35C G80U", "self-cleavage": 0.043}
{"VARIANT IDENTIFIER": "C32A C84U", "self-cleavage": 0.0536}
{"VARIANT IDENTIFIER": "C26U A43C", "self-cleavage": 0.831}
{"VARIANT IDENTIFIER": "C36G G54C", "self-cleavage": 0.243}
{"VARIANT IDENTIFIER": "G1C G5U", "self-cleavage": 0.175}
{"VARIANT IDENTIFIER": "C3G A83G", "self-cleavage": 0.289}
{"VARIANT IDENTIFIER": "U20A G73A", "self-cleavage": 0.0791}
{"VARIANT IDENTIFIER": "C57U G74U", "self-cleavage": 0.548}
{"VARIANT IDENTIFIER": "C64A G73A", "self-cleavage": 0.385}
{"VARIANT IDENTIFIER": "A42G U47C", "self-cleavage": 0.532}
{"VARIANT IDENTIFIER": "C15G C24A", "self-cleavage": 0.482}
{"VARIANT IDENTIFIER": "A16U G67A", "self-cleavage": 0.988}
{"VARIANT IDENTIFIER": "G25C G29U", "self-cleavage": 0.0773}
{"VARIANT IDENTIFIER": "U12C C32A", "self-cleavage": 0.256}
{"VARIANT IDENTIFIER": "C13A G68U", "self-cleavage": 0.125}
{"VARIANT IDENTIFIER": "C30U C66U", "self-cleavage": 0.544}
{"VARIANT IDENTIFIER": "U37C C48U", "self-cleavage": 1.14}
{"VARIANT IDENTIFIER": "G10C G40A", "self-cleavage": 0.95}
{"VARIANT IDENTIFIER": "G10A C19U", "self-cleavage": 0.0326}
{"VARIANT IDENTIFIER": "A70G C85U", "self-cleavage": 1.01}
{"VARIANT IDENTIFIER": "G17U U79A", "self-cleavage": 0.755}
{"VARIANT IDENTIFIER": "G6C G38C", "self-cleavage": 0}
{"VARIANT IDENTIFIER": "C22A A56G", "self-cleavage": 0.415}
{"VARIANT IDENTIFIER": "U37C A51G", "self-cleavage": 0.966}
{"VARIANT IDENTIFIER": "C14G C61A", "self-cleavage": 0.88}
{"VARIANT IDENTIFIER": "G54A G67A", "self-cleavage": 0.698}
{"VARIANT IDENTIFIER": "U65C G73U", "self-cleavage": 0.554}
{"VARIANT IDENTIFIER": "G10U G55C", "self-cleavage": 0.831}
{"VARIANT IDENTIFIER": "G5U G80U", "self-cleavage": 0.0405}
{"VARIANT IDENTIFIER": "G6U G28A", "self-cleavage": 0}
{"VARIANT IDENTIFIER": "U12G C58U", "self-cleavage": 0.751}
{"VARIANT IDENTIFIER": "G74C A77G", "self-cleavage": 0.145}
{"VARIANT IDENTIFIER": "G5C A83U", "self-cleavage": 0}
{"VARIANT IDENTIFIER": "C22U G55U", "self-cleavage": 0.732}
{"VARIANT IDENTIFIER": "C24U C33A", "self-cleavage": 0.0845}
{"VARIANT IDENTIFIER": "C13G U27C", "self-cleavage": 0.262}
{"VARIANT IDENTIFIER": "A8C G39U", "self-cleavage": 0.381}
{"VARIANT IDENTIFIER": "G28C U79G", "self-cleavage": 0.246}
{"VARIANT IDENTIFIER": "U23A A70U", "self-cleavage": 0.962}
{"VARIANT IDENTIFIER": "C26A C36U", "self-cleavage": 0.629}
{"VARIANT IDENTIFIER": "G17U C26U", "self-cleavage": 0.654}
{"VARIANT IDENTIFIER": "G17A G38U", "self-cleavage": 0.1}
{"VARIANT IDENTIFIER": "G53A C62G", "self-cleavage": 0.511}
{"VARIANT IDENTIFIER": "G81A C84U", "self-cleavage": 0.327}
{"VARIANT IDENTIFIER": "G5A C14A", "self-cleavage": 0}
{"VARIANT IDENTIFIER": "C30U G55C", "self-cleavage": 0.523}
{"VARIANT IDENTIFIER": "C4U A16G", "self-cleavage": 0.862}
{"VARIANT IDENTIFIER": "G28A C30G", "self-cleavage": 0.117}
